The measured values listed here are drawn from the Immune Epitope Database (IEDB).

target: HLA-B*44:03; test: IEDB peptide-MHC binding, purified MHC/competitive/radioactivity; filed as Kd, often an IC50 or EC50 that approximates it; bounds were set here for any values at or beyond the usual limits of such assays; conditions: source organism: Mammarenavirus choriomeningitidis
pKd: −log10 of the molar value.

monomer_sequence	pKd
NDSILSHNF	4.94

---

biological target: HLA-A*11:01; test: IEDB peptide-MHC binding, purified MHC/direct/fluorescence; filed as Kd, often an IC50 or EC50 that approximates it; bounds were set here for any values at or beyond the usual limits of such assays; details: source organism: Marburg virus - Musoke, Kenya, 1980
pKd: −log10 of the molar value.

monomer_sequence	pKd
AEALLADGL	≤ 4.70

---

target: HLA-A*30:01; assay: IEDB peptide-MHC binding, purified MHC/competitive/radioactivity; filed as Kd, often an IC50 or EC50 that approximates it; bounds were set here for any values at or beyond the usual limits of such assays; conditions: source organism: Lymphocytic choriomeningitis virus (strain Armstrong)

monomer_sequence	Kd
FTNDSIISH	≥ 45.5 µM

---

target: HLA-A*02:03; assay: IEDB peptide-MHC binding, purified MHC/direct/fluorescence; filed as Kd, often an IC50 or EC50 that approximates it; bounds were set here for any values at or beyond the usual limits of such assays; details: source organism: Influenza A virus (A/Taiwan/2/2006(H1N1))

monomer_sequence	Kd
ELDEIGEDV	≥ 5 µM

---

molecular target: HLA-A*03:01; test: IEDB peptide-MHC binding, purified MHC/direct/fluorescence; filed as Kd, often an IC50 or EC50 that approximates it; bounds were set here for any values at or beyond the usual limits of such assays; conditions: source organism: Histophilus somni

monomer_sequence	assayed_system	Kd
QYPAFVLFI	HLA-A*03:01	≥ 20 µM

---

molecular target: HLA-B*27:05; assay: IEDB peptide-MHC binding, purified MHC/direct/fluorescence; filed as Kd, often an IC50 or EC50 that approximates it; bounds were set here for any values at or beyond the usual limits of such assays; settings: source organism: Marburg virus - Musoke, Kenya, 1980
test_readout: Kd

monomer_sequence	test_readout	result
AEALLADGL	Kd	≥ 20 µM

---

target: HLA-B*39:01; assay: IEDB peptide-MHC binding, purified MHC/direct/fluorescence; filed as Kd, often an IC50 or EC50 that approximates it; bounds were set here for any values at or beyond the usual limits of such assays; conditions: source organism: Camelpox virus M-96

monomer_sequence	assayed_system	output_unit	Kd
TRVTNNVYL	HLA-B*39:01	nM	19.8

---

target: HLA-B*15:09; test: IEDB peptide-MHC binding, purified MHC/competitive/fluorescence; filed as Kd, often an IC50 or EC50 that approximates it; bounds were set here for any values at or beyond the usual limits of such assays; details: source organism: Giardia lamblia ATCC 50803
test_readout: Kd (nM)

monomer_sequence	test_readout	recorded_number
LPVFATIGL	Kd	1980

---

target: HLA-A*30:02; test: IEDB peptide-MHC binding, purified MHC/competitive/radioactivity; filed as Kd, often an IC50 or EC50 that approximates it; bounds were set here for any values at or beyond the usual limits of such assays; details: source organism: Dengue virus 2 Peru/IQT2913/1996
pKd: −log10 of the molar value.
test_readout: pKd

monomer_sequence	modifier	recorded_number
DKKGKVVGLY	=	8.59
FTMRHKKATY	≤	4.36
